Reference source for all entries: patent US10343992B2

For reference, pIC50 measured on USP30 (Homo sapiens (Human)):
pIC50: −log10 of the molar value.

// worked examples, pIC50 included
[in] Give me measured pIC50, please, for this molecule: COc1cc(C(=O)N2CC[C@@H]3CN(C#N)C[C@@H]32)ccc1-c1cnn(C)c1 (racemic) [Example 60]
[out] 5.00 to 6.00

[in] Complete the entry with pIC50 for CC(C)C(=O)N(C)c1ccnc(C(=O)N[C@@H]2CCN(C#N)C2)c1 [Example 215]
[out] 6.00 to 7.00

[in] Determine from records and report pIC50 for N#CN1CCC(NC(=O)c2cn(-c3ccccc3)cn2)C1 (racemic) [Example 9]
[out] 6.00 to 7.00

[in] Look up and state reported pIC50 for N#CN1CC[C@@H](NC(=O)c2ccc(Nc3nccc(C4CC4)n3)c(F)c2F)C1 [Example 214]
[out] > 7.00

[in] Please report the measured pIC50 for N#CN1CC[C@@H](NC(=O)c2ncc(-c3ccc(F)cc3)cc2Cl)C1 [Example 123]
[out] > 7.00

Next:
[in] Using the record for N#CN1CC[C@@H](NC(=O)c2ccnc(N3CCc4ccccc4C3)c2)C1 [Example 74] , state its measured pIC50.
[out] 6.00 to 7.00

[in] Note down pIC50 recorded for N#CN1CCC(NC(=O)c2ccc(-c3ccccc3Cl)cc2)C1 (stereo not drawn) [Example 3]
[out] > 7.00

[in] Quick one: give measured pIC50 for N#CN1CCC(NC(=O)c2ccc(-c3cccc(Cl)c3)cc2)C1 (racemic) [Example 13]
[out] > 7.00

[in] Please list pIC50 recorded for the molecule N#CN1CC[C@@H](NC(=O)c2cc(-c3ccc(F)cc3F)no2)C1 [Example 272]
[out] > 7.00

[in] Complete the entry with pIC50 for Cc1cc(-c2ccn3c(C(=O)N(C)[C@@H]4CCN(C#N)C4)cnc3c2)ccn1 [Example 161]
[out] 6.00 to 7.00

[in] Quote pIC50 reported for Cc1cc(-c2ccc(NC(=O)N3CC[C@@H]4CN(C#N)C[C@@H]43)nc2)ccn1 [Example 244] please.
[out] > 7.00

[in] Annotate the molecule N#CN1CC[C@@H](NC(=O)N2CC(OCc3ccccc3)(c3ccccc3)C2)C1 [Example 238] with its measured pIC50.
[out] > 7.00

* * *

Measured IC50 values are reported for all entries that follow.
biological target: USP30 (Homo sapiens (Human))

A selection of reference data follows.
[in] For N#CN1CC[C@@H](NC(=O)c2cc(-c3ccccn3)ccn2)C1 , write its IC50.
[out] 100 to 1000 nM

[in] Item Cc1cc(-c2ccc(NC(=O)N3CC[C@@H]4CN(C#N)C[C@@H]43)cc2)ccn1 : provide IC50
[out] < 100 nM

[in] Provide one value: measured IC50 of CO[C@H]1CN(C#N)C[C@@H]1N(C)C(=O)c1ccc(-c2cnn(C)c2)cc1 (relative stereo)
[out] 100 to 1000 nM

Note: attention shifts to another entry.
[in] For N#CN1C[C@H]2CCN(C(=O)Nc3ccc(OC(F)(F)F)cc3F)[C@H]2C1 , write its IC50.
[out] < 100 nM

* * *

Below is a list of entries, each paired with its recorded pIC50 value.
target: USP30 (Homo sapiens (Human), UniProt Q70CQ3); assay: USP30 biochemical FP or FI IC50 assay; conditions: read-out: IC50 range
Sequence (Q70CQ3 57-517): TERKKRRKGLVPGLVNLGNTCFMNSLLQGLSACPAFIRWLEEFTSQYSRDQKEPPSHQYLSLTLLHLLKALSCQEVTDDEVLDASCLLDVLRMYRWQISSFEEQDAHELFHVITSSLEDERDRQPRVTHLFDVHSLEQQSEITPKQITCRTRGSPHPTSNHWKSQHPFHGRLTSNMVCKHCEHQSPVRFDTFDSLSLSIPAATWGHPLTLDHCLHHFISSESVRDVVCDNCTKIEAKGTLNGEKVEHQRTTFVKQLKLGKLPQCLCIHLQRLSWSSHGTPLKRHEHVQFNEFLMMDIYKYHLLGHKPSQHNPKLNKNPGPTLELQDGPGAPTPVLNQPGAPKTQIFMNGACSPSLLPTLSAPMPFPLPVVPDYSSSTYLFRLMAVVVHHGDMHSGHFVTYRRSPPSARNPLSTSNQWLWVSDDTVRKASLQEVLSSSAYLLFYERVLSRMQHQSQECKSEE
pIC50: −log10 of the molar value.

[in] With USP30 (Homo sapiens (Human), UniProt Q70CQ3) as the test system, provide measured pIC50 for this compound: CN(C(=O)Nc1ccc(Cl)cn1)[C@@H]1CCN(C#N)C1 [Example 267]
[out] 6.00 to 7.00

[in] Report measured pIC50 on USP30 (Homo sapiens (Human), UniProt Q70CQ3); entry: Cn1cc(-c2ccc3cc(C(=O)N[C@@H]4CCN(C#N)C4)n(C)c3c2)cn1 [Example 229]
[out] 6.00 to 7.00

[in] Answer with pIC50 of N#Cc1cccc(-c2ccc3nc(C(=O)N[C@@H]4CCN(C#N)C4)cn3c2)c1 [Example 116] measured for USP30 (Homo sapiens (Human), UniProt Q70CQ3).
[out] > 7.00

[in] Please report the measured pIC50 for N#CN1CC[C@@H](NC(=O)c2cc(-c3ccccc3F)[nH]n2)C1 [Example 98] tested on USP30 (Homo sapiens (Human), UniProt Q70CQ3).
[out] > 7.00

Lab note: next compound to report on.
[in] Report pIC50 from USP30 (Homo sapiens (Human), UniProt Q70CQ3) testing of Cc1ccc(-c2cc(C(=O)N[C@@H]3CCN(C#N)C3)on2)cc1C [Example 271]
[out] > 7.00

* * *

Record set of IC50 for target or system USP30 (Homo sapiens (Human)).

Examples from the recorded data:
[in] Answer with the recorded IC50 of CCn1cc(-c2ccc3nc(C(=O)N[C@@H]4CCN(C#N)C4)c(F)n3c2)cn1 only.
[out] 0.1 to 1 µM

[in] Item N#CN1C[C@H]2CCN(C(=O)c3ccc(-c4ccccc4)[nH]c3=O)[C@H]2C1 : provide IC50
[out] 0.1 to 1 µM

Continuing:
[in] Retrieve IC50 measured for Cn1ncc2cc(-c3ccc(C(=O)N[C@@H]4CCN(C#N)C4)c(F)c3)ccc21 and print it.
[out] < 0.1 µM

[in] Quote IC50 reported for N#CN1CCC(NC(=O)c2ccc(N3CCC(C(N)=O)CC3)nc2)C1 (racemic) please.
[out] 1 to 10 µM

[in] Complete the entry with IC50 for N#CN1CC[C@@H](NC(=O)c2ccnc(N3Cc4ccccc4C3)c2)C1
[out] 0.1 to 1 µM

[in] Input CN(C(=O)c1ccc(-c2cnn(C)c2)c(F)c1)[C@@H]1CCN(C#N)C1 , output reported IC50.
[out] 0.1 to 1 µM

[in] Report IC50, nothing else, for this molecule: Cc1cc(-c2ccc(NC(=O)N3CC[C@@H]4CN(C#N)C[C@@H]43)c(F)c2)ccn1
[out] 0.1 to 1 µM

[in] Indicate the recorded IC50 value for this molecule: CCN(C(=O)c1cnc2cc(-c3ccnc(C)c3)ccn12)[C@@H]1CCN(C#N)C1
[out] 0.1 to 1 µM

* * *

# maps each entry to its IC50
molecular target: USP30 (Homo sapiens (Human), UniProt Q70CQ3)

Below, 5 compounds whose answers are already recorded.
[in] Under USP30 (Homo sapiens (Human), UniProt Q70CQ3), report IC50 for N#CN1CCCC(NC(=O)Nc2cccc(Oc3ccccc3)c2)C1 (stereo not shown) [Example 250]
[out] 1000 to 10000 nM

[in] Provide the reported IC50 (system: USP30 (Homo sapiens (Human), UniProt Q70CQ3)) for Cn1cc(-c2ccc(C(=O)N[C@@H]3CN(C#N)C[C@@H]3C3CC3)cc2F)cn1 (relative stereo) [Example 177]
[out] 100 to 1000 nM

[in] Provide IC50, recorded with USP30 (Homo sapiens (Human), UniProt Q70CQ3), of Cn1ncc2cc(-c3cnc(C(=O)N[C@@H]4CCN(C#N)C4)c(F)c3)ccc21 [Example 120]
[out] < 100 nM

[in] Enter measured IC50, system USP30 (Homo sapiens (Human), UniProt Q70CQ3), for the compound shown: CN(C(=O)c1cc2cc(-c3cnn(C)c3)ncc2[nH]1)[C@@H]1CCN(C#N)C1 [Example 263]
[out] 100 to 1000 nM

[in] State, for USP30 (Homo sapiens (Human), UniProt Q70CQ3), measured IC50 of the compound listed here: C[C@@H]1CN(c2ccc(C(=O)N[C@@H]3CCN(C#N)C3)cc2F)C[C@H](C)O1 [Example 6]
[out] 100 to 1000 nM

Further cases:
[in] Report its IC50 with USP30 (Homo sapiens (Human), UniProt Q70CQ3) as the test system: Cc1nn(C)cc1-c1ccc(C(=O)N[C@@H]2CCN(C#N)C2)c(F)c1 [Example 80]
[out] < 100 nM

[in] Report value only: IC50, USP30 (Homo sapiens (Human), UniProt Q70CQ3), COCCN(C(=O)Nc1ccc(C(F)(F)F)cc1)C1CCN(C#N)C1 (stereo not shown) [Example 205]
[out] 100 to 1000 nM

[in] Enter recorded IC50 with USP30 (Homo sapiens (Human), UniProt Q70CQ3) for CCN(C(=O)c1ccc(-c2cnn(C)c2)c(F)c1)[C@@H]1CCN(C#N)C1 [Example 206] here.
[out] 100 to 1000 nM

[in] Tell me IC50 of Cn1cc(-c2ccn3c(C(=O)N[C@@H]4CCN(C#N)C4)cnc3c2)cn1 [Example 159] when tested on USP30 (Homo sapiens (Human), UniProt Q70CQ3).
[out] 100 to 1000 nM

* * *

Recorded pIC50 values for a group of compounds are listed next.
biological target: USP30 (Homo sapiens (Human), UniProt Q70CQ3)
pIC50: −log10 of the molar value.

Some compounds with known pIC50 results, for comparison:
[in] Give USP30 (Homo sapiens (Human), UniProt Q70CQ3) pIC50 for the following compound: N#CN1C[C@H](NC(=O)c2cnc(-c3ccccc3Cl)s2)[C@@H](O)C1 (relative stereo)
[out] > 7.00

[in] For USP30 (Homo sapiens (Human), UniProt Q70CQ3), give pIC50 of the listed compound: N#CN1CC[C@H](NC(=O)c2ccc(-c3ccncc3)cc2)C1
[out] 5.00 to 6.00

[in] Report its pIC50 with USP30 (Homo sapiens (Human), UniProt Q70CQ3) as the test system: N#CN1CCC(NC(=O)Nc2cccc(Oc3ccccc3)c2)C1 (stereo not drawn)
[out] > 7.00

[in] Write down the reported pIC50 (system: USP30 (Homo sapiens (Human), UniProt Q70CQ3)) of CN(C(=O)Nc1cccc(Cl)c1)C1CCN(C#N)C1 (stereo not drawn)
[out] 6.00 to 7.00

Others:
[in] For USP30 (Homo sapiens (Human), UniProt Q70CQ3), give pIC50 of the listed compound: N#CN1CC[C@@H](NC(=O)c2ccc(N3CCOCC3)nc2)C1
[out] 6.00 to 7.00

[in] # lookup: USP30 (Homo sapiens (Human), UniProt Q70CQ3) pIC50, key = Cc1noc(C)c1-c1ccc2c(C(=O)N[C@@H]3CCN(C#N)C3)nn(CC3CC3)c2c1
[out] > 7.00

[in] Check USP30 (Homo sapiens (Human), UniProt Q70CQ3) data and give pIC50 for N#Cc1cc(F)c(NC(=O)N2CC[C@@H]3CN(C#N)C[C@@H]32)cc1F .
[out] 6.00 to 7.00

[in] Fill in: pIC50 on USP30 (Homo sapiens (Human), UniProt Q70CQ3), entry Cc1noc(C)c1-c1ccc(C(=O)NC2CCN(C#N)C2)cc1 (racemic)
[out] 6.00 to 7.00

[in] Consider the compound N#CN1CC[C@@H](NC(=O)c2cc(-c3ccncc3)no2)C1 tested on USP30 (Homo sapiens (Human), UniProt Q70CQ3); state its pIC50.
[out] 6.00 to 7.00
